Below, each entry is listed with its recorded TGI.
System: SK-MEL-5 melanoma
ASSAY_METHOD_TEXT: NCI tumour cell line growth inhibition, 48 h

COMPOUND: C/C(CCc1ccccc1)=N\NC(N)=S
PREFIX_OPERATOR: >
TGI / µM: 100

COMPOUND: Cc1cc(S(=O)(=O)NC#N)c(S/C(=N\Nc2ccc([N+](=O)[O-])cc2)c2ccc(Cl)cc2)cc1Cl
PREFIX_OPERATOR: =
TGI / µM: 42.3

COMPOUND: C=C1N(C=O)C(C)(C)N(O)C1(C)C
PREFIX_OPERATOR: >
TGI / µM: 100

COMPOUND: NC(N)=NCCC1OC(=O)C2=C1c1c(O)ccc3nccc(c13)O2 (stereo unspecified)
PREFIX_OPERATOR: >
TGI / µM: 100

COMPOUND: C1=C2C3=[N+](CCCCC3)CC2Cc2ccsc21 (stereo unspecified)
PREFIX_OPERATOR: >
TGI / µM: 100

COMPOUND: NCCCCNCCCNC(=O)c1nc(-c2nc(CCN)sc2Cl)sc1Cl
PREFIX_OPERATOR: >
TGI / µM: 100

COMPOUND: COc1ccc(-c2c3c(n(C4OC(CO)C(O)C(O)C4O)c(=S)c2C#N)CCC3)cc1 (stereo unspecified)
PREFIX_OPERATOR: =
TGI / µM: 38.8

COMPOUND: N#C/C(=C/n1c(=S)[nH]c2ccc([N+](=O)[O-])cc21)C(N)=O
PREFIX_OPERATOR: >
TGI / µM: 100

COMPOUND: COc1ccc(-c2oc3c(OC)c(OC)c(OC)c(OC)c3c(=O)c2OC)cc1OC
PREFIX_OPERATOR: =
TGI / µM: 66.3

COMPOUND: O=C(OCCN=c1c2ccccc2ccc2ccccc12)c1ccccc1
PREFIX_OPERATOR: >
TGI / µM: 100

COMPOUND: Cc1cc(S(=O)(=O)Nc2n[nH]c(-c3ccccn3)n2)c(S)cc1Cl
PREFIX_OPERATOR: =
TGI / µM: 24.3

COMPOUND: COc1cc2c(=O)n(CCN)c3c4cc5c(cc4ccc3c2cc1OC)OCO5
PREFIX_OPERATOR: =
TGI / µM: 2.15

COMPOUND: C/C(Cl)=N\OC(=O)Nc1ccc(C)cc1
PREFIX_OPERATOR: =
TGI / µM: 31.5

COMPOUND: COc1ccccc1/C=C/C(=O)c1ccccc1
PREFIX_OPERATOR: =
TGI / µM: 25.7

COMPOUND: O=S(=O)(O)c1ccc(N=Nc2ccc(N=Nc3ccc(/C=C/c4ccc(N=[N+]([O-])c5ccc(/C=C/c6ccc(N=Nc7ccc(N=Nc8ccc(S(=O)(=O)O)cc8)cc7)cc6S(=O)(=O)O)c(S(=O)(=O)O)c5)cc4S(=O)(=O)O)c(S(=O)(=O)O)c3)cc2)cc1
PREFIX_OPERATOR: >
TGI / µM: 100

COMPOUND: Cc1ccc(-c2csc(NC(=O)CN3CCN(c4cc5c(cc4F)c(=O)c(C(=O)O)cn5C4CC4)CC3)n2)cc1
PREFIX_OPERATOR: =
TGI / µM: 2.89

COMPOUND: CC[O-].CC[O-].O=S(=O)([O-])c1ccc([O-])c2ncccc12.O=S(=O)([O-])c1ccc([O-])c2ncccc12.[Ti+4]
PREFIX_OPERATOR: >
TGI / µM: 100

COMPOUND: N#CC1(O)CCCCCCCCCCC1
PREFIX_OPERATOR: >
TGI / µM: 100

COMPOUND: COc1ccc2nc(/C(N)=C\C#N)ccc2c1
PREFIX_OPERATOR: >
TGI / µM: 100

COMPOUND: COC(=O)C1CCc2sc3ncnc(Nc4cn[nH]c4C(=O)Nc4ccc(CN5CCN(C)CC5)cc4)c3c21 (stereo unspecified)
PREFIX_OPERATOR: =
TGI / µM: 2.56

COMPOUND: O=C1NC(=S)S/C1=C(/C=C(\CC(=O)c1ccccc1)c1ccc(Cl)cc1)c1ccccc1
PREFIX_OPERATOR: =
TGI / µM: 34.3
